system_name: the molecule itself
assay_summary: SEC; Superdex 200 10/300, 0.5 ml min^−1, 1 mg ml^−1 protein, 100 μl injected; 50 mM NaCl, 50 mM KCl, 50 mM K2HPO4 pH 7.4; 30 °C; fractions as areas under the peaks; peaks also viewed by TEM
Quick rule for you: fraction of the protein in II peak of the elution profile at 60% or higher means yes (1), lower means no (0).

| protein | group_label |
| --- | --- |
| AlIbpAΔN25 (domain or fragment, Acholeplasma laidlawii, UniProt A9NFB2 26-137, looked up, AlIbpA of Acholeplasma laidlawii PG8 with 25 N-terminal amino acids removed (lacks both (W/F)(D/F)PF-like motifs); source: E. coli BL21(DE3), purified (Ni-NTA); not shown: His6, N-terminal, kept) TTSNLMRTDIKETQNGYSLSVELPGFKKEDVKVSLEDGYLTIEAHTSKNSETKDQATKYIRKERYEGTMKRSYYVGNLHLDEINGTFENGMLHIELPKETKKEPEKRYLELK | no (0) |
| AlIbpASEP (natural protein, Acholeplasma laidlawii, UniProt A9NFB2 1-137, looked up, AlIbpA of Acholeplasma laidlawii PG8 with the C-terminal LEL motif substituted by SEP (L134 to S134, L136 to P136), length of the C-terminus kept; source: E. coli BL21(DE3), purified (Ni-NTA); not shown: His6, N-terminal, kept) MLSLLNKNRSFFDDFFEDFNVLNPVTTSNLMRTDIKETQNGYSLSVELPGFKKEDVKVSLEDGYLTIEAHTSKNSETKDQATKYIRKERYEGTMKRSYYVGNLHLDEINGTFENGMLHIELPKETKKEPEKRYSEPK | no (0) |
| AlIbpASEPΔN25 (domain or fragment, Acholeplasma laidlawii, UniProt A9NFB2 26-137, looked up, AlIbpA of Acholeplasma laidlawii PG8 lacking 25 N-terminal amino acids and with LEL substituted by SEP (L134S, L136P); source: E. coli BL21(DE3), purified (Ni-NTA); not shown: His6, N-terminal, kept) TTSNLMRTDIKETQNGYSLSVELPGFKKEDVKVSLEDGYLTIEAHTSKNSETKDQATKYIRKERYEGTMKRSYYVGNLHLDEINGTFENGMLHIELPKETKKEPEKRYSEPK | no (0) |
| AlIbpAΔN12 (domain or fragment, Acholeplasma laidlawii, UniProt A9NFB2 13-137, looked up, AlIbpA of Acholeplasma laidlawii PG8 lacking the first 12 amino acid residues; source: E. coli BL21(DE3), purified (Ni-NTA); not shown: His6, N-terminal, kept) DDFFEDFNVLNPVTTSNLMRTDIKETQNGYSLSVELPGFKKEDVKVSLEDGYLTIEAHTSKNSETKDQATKYIRKERYEGTMKRSYYVGNLHLDEINGTFENGMLHIELPKETKKEPEKRYLELK | no (0) |
| AlIbpAN11N12 (natural protein, Acholeplasma laidlawii, UniProt A9NFB2 1-137, looked up, AlIbpA of Acholeplasma laidlawii PG8 with F11F12 substituted by N11N12, complete N-terminus length kept; source: E. coli BL21(DE3), purified (Ni-NTA); not shown: His6, N-terminal, kept) MLSLLNKNRSNNDDFFEDFNVLNPVTTSNLMRTDIKETQNGYSLSVELPGFKKEDVKVSLEDGYLTIEAHTSKNSETKDQATKYIRKERYEGTMKRSYYVGNLHLDEINGTFENGMLHIELPKETKKEPEKRYLELK | yes (1) |
| full-length recombinant AlIbpA (small heat shock protein IbpA from Acholeplasma laidlawii), His6-tagged (natural protein, UniProt A9NFB2 1-137, looked up, small heat shock protein IbpA (AlIbpA) of Acholeplasma laidlawii PG8, full length; Legends call it AlIbpA-His6, the methods say the His6 tag is N-terminal; In solution a mixture of about 24-mer globules, fibrils and agglomerates; also called AlIbpA-His6; His6-IbpA; source: E. coli BL21(DE3), purified (Ni-NTA); also in E. coli BL21 pET-IbpA cells, cross-linked in the cells, crude cell extract; not …) MLSLLNKNRSFFDDFFEDFNVLNPVTTSNLMRTDIKETQNGYSLSVELPGFKKEDVKVSLEDGYLTIEAHTSKNSETKDQATKYIRKERYEGTMKRSYYVGNLHLDEINGTFENGMLHIELPKETKKEPEKRYLELK | yes (1) |
